Values compiled from patent US20200392198A1.

# study_target: T1, human GIP receptor (human, UniProt P48546 22-466)
# T1 sequence (looked up): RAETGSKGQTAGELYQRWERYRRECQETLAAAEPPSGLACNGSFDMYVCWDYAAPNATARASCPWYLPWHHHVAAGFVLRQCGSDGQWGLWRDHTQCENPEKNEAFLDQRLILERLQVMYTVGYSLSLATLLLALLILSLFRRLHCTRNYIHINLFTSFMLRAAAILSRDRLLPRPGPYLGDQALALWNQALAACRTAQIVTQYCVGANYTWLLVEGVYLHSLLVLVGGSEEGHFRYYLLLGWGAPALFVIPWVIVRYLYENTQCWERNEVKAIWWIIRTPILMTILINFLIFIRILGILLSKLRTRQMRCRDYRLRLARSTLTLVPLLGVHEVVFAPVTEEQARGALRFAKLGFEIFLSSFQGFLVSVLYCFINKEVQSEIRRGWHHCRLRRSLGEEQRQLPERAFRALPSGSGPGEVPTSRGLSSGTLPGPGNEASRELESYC
# assay_comment: cell-based or functional assay
A collection of binders and their measured EC50 (cAMP)
Give the number; nM is assumed, so skip it.

• HAEGTFISDYSTILDNLAARDFVNWLLAQKITD [GIP-GLP-2 co-agonist 9] = 3.2
• HVDGTFISDYSTILDNLAARDFINWLIQTKITD [GIP-GLP-2 co-agonist 12] = 1.1

Lab book: EC50 (cAMP) of HAEGTFISDYSTILDNIHQQDFINWLIQTKITD [GIP-GLP-2 co-agonist 8] noted as 5.9

Lab book: EC50 (cAMP) of HAEGTFISDYSIAMDKLAARDFINWLIQTKITD [GIP-GLP-2 co-agonist 7] noted as 26
